meta.source: patent US11596636B2

- target_desc: menin-MLL1 interaction (His-SUMO-Menin-Δ460-519, FITC-MLL peptide) (Homo sapiens, UniProt O00255, DEL460-519)
- Sequence (O00255 with tags, fused parts or gaps DEL460-519): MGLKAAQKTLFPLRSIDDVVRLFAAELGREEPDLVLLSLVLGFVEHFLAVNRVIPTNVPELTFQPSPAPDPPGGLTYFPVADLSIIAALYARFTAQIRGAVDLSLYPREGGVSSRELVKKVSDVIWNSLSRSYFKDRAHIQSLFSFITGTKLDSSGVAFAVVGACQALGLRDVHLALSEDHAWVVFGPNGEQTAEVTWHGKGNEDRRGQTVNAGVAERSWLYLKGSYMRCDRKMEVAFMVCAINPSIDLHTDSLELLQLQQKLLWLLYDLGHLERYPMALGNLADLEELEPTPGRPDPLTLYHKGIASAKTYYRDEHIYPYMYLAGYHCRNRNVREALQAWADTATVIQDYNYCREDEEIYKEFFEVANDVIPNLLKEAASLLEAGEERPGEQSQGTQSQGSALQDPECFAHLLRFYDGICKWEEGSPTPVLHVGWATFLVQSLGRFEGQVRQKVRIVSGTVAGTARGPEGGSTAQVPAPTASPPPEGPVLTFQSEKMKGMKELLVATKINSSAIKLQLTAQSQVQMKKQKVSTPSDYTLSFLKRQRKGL
- method: Fluorescence polarization competition assay, FITC-MLL peptide displacement from menin
- setup_conditions: normalized IC50; FITC-MLL peptide 1.5 nM, His-SUMO-Menin-Δ460-519 5 nM; read-out: IC50, inhibition of menin-MLL1 interaction
readout: IC50 (µM)

>>> endpoint_result("CN(CCN(C)c1ccc(N)cc1)c1ccc(N)cc1")
32
